assay: Clearance in Sprague-Dawley rat at 2.2 mg/kg, iv and 4.8 mg/kg, po
Type: ADME, organism-based
setup.conditions: in vivo
assay.endpoint: clearance (mL/min/kg)
// note: answer is a bare numeric in mL/min/kg

Input: I would be grateful if you could share the reported clearance for CC(C)OC(=O)c1ccc(NC(=O)N[C@@H](Cc2ccc(O)cc2)C(=O)N[C@H]2CCC[N+](C)(Cc3cccc(O)c3)C2)cc1.[I-] (stereo partly specified) .
Output: 15

----------
study.system: Muscarinic acetylcholine receptor M1 (Homo sapiens, UniProt P11229)
Sequence (P11229 whole entry): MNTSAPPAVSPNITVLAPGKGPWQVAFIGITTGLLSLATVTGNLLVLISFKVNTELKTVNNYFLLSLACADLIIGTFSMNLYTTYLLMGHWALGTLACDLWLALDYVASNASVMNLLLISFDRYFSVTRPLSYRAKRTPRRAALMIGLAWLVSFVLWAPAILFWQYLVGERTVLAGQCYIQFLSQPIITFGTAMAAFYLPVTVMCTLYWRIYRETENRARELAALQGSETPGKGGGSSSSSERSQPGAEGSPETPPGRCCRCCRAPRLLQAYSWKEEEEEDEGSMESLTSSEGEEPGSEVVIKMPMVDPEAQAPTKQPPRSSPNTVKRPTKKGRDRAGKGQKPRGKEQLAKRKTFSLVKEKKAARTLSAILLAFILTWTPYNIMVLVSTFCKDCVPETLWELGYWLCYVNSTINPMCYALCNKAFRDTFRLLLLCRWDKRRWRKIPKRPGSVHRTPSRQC
assay: Antagonist activity at human muscarinic acetylcholine M1 receptor expressed in CHO cells assessed as inhibition of acetylcholine-induced calcium mobilization by FLIPR assay
// values below are reported log10 of IC50
In plain terms, each number is the log10 of measured IC50 in µM.

Previously resolved entries follow.
INSERT INTO assay_data (compound, numeric_value) VALUES
  ('CCOC(=O)c1ccc(NC(=O)N[C@H](Cc2ccc(O)cc2)C(=O)N[C@H]2CCN(Cc3ccc(O)cc3)C2)cc1', 1.10),
  ('CCOC(=O)c1ccc(NC(=O)N[C@@H](Cc2ccc(O)cc2)C(=O)N[C@H]2CCN(Cc3ccc(O)cc3)C2)cc1', 0.00),
  ('CCOC(=O)c1ccc(NC(=O)N[C@@H](Cc2ccc(O)cc2)C(=O)N[C@@H]2CCN(Cc3ccc(O)cc3)C2)cc1', 0.60),
  ('CCOC(=O)c1ccc(NC(=O)N[C@@H](Cc2ccc(O)cc2)C(=O)NC2CCN(Cc3ccc(O)cc3)C2)cc1 (stereo not given in full)', 0.30);

Next item in the queue.
Input: I would be grateful if you could share the reported log10 of IC50 for "CCOC(=O)c1ccc(NC(=O)N[C@H](Cc2ccc(O)cc2)C(=O)N[C@@H]2CCN(Cc3ccc(O)cc3)C2)cc1" .
Output: 1.30

----------
study.system: Muscarinic acetylcholine receptor M3 (Homo sapiens)
Sequence (P20309 whole entry): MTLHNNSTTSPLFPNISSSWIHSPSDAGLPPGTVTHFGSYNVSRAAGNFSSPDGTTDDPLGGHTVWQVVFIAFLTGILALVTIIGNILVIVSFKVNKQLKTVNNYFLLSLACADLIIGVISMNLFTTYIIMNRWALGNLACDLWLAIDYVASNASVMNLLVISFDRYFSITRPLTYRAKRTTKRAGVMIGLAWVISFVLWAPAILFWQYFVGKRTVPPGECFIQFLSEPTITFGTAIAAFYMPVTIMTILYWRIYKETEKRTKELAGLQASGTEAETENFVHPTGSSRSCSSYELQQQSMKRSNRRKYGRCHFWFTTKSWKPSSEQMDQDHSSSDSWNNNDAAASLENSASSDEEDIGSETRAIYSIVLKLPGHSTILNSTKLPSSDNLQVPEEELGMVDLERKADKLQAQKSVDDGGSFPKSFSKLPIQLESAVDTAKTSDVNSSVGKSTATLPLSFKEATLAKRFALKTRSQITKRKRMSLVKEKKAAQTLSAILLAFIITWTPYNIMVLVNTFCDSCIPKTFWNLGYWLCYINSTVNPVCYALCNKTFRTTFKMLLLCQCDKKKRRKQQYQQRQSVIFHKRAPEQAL
assay: Antagonist activity at human muscarinic acetylcholine M3 receptor expressed in CHO cells assessed as inhibition of acetylcholine-induced calcium mobilization by FLIPR assay
pIC50: −log10 of the molar value.
pIC50 of 6 or higher: 1 (yes). Under 6: 0 (no).

Worked examples follow.
INSERT INTO measurements (molecule, classification) VALUES
  ('CCOC(=O)c1ccc(NC(=O)N[C@H](Cc2ccc(O)cc2)C(=O)N[C@H]2CCN(Cc3ccc(O)cc3)C2)cc1', '0 (no)'),
  ('CCOC(=O)c1ccc(NC(=O)N[C@@H](Cc2ccc(O)cc2)C(=O)N[C@@H]2CCN(Cc3ccc(O)cc3)C2)cc1', '0 (no)'),
  ('CCOC(=O)c1ccc(NC(=O)N[C@H](Cc2ccc(O)cc2)C(=O)N[C@@H]2CCN(Cc3ccc(O)cc3)C2)cc1', '0 (no)');

Input: Record CCOC(=O)c1ccc(NC(=O)N[C@@H](Cc2ccc(O)cc2)C(=O)NC2CCN(Cc3ccc(O)cc3)C2)cc1 (stereo not given in full) ; criterion: pIC50 no lower than 6. Met?
Output: 1 (yes)

Input: Record "CCOC(=O)c1ccc(NC(=O)N[C@@H](Cc2ccc(O)cc2)C(=O)N[C@H]2CCN(Cc3ccc(O)cc3)C2)cc1" ; criterion: pIC50 no lower than 6. Met?
Output: 1 (yes)

----------
assay: Half life in Sprague-Dawley rat at 2.2 mg/kg, iv and 4.8 mg/kg, po
Assay type: ADME, organism-based
setup.conditions: in vivo
assay.endpoint: half-life (min)
// note: answer is a bare numeric in min

Input: I would be grateful if you could share the reported half-life for CC(C)OC(=O)c1ccc(NC(=O)N[C@@H](Cc2ccc(O)cc2)C(=O)N[C@H]2CCC[N+](C)(Cc3cccc(O)c3)C2)cc1.[I-] (stereo partly specified) .
Output: 66
